Cited source: PubChem BioAssay (NCI)

# Tested on: LOX IMVI melanoma
# assay: NCI tumour cell line growth inhibition, 48 h; in the data active = GI50 below about 0.43 µM; inactive = the rest
Classes used: Y (active), N (inactive)

1. Cc1ncc(-c2ccnc(Nc3ccc(S(C)(=O)=O)cc3)n2)n1C(C)C
N
2. CC(OC(=O)N(N(CCCl)S(C)(=O)=O)S(C)(=O)=O)c1ccc([N+](=O)[O-])cc1 (stereo not drawn)
N
3. COc1ccc(-c2nnc(Nc3nc(O)c(C4=c5cc(F)ccc5=NC4=O)s3)o2)cc1
N
4. COc1ccc(Oc2cc(NCCC(F)(F)F)c3ncc(-c4ccc(C(=O)NC5CC5)c(C)c4)n3n2)c(F)c1F
Y
5. COc1ccc(C(=O)OC2C(OC3C(O)COC(O[C@H]4C[C@H]5[C@@H]6CC=C7C[C@@H](O)CC[C@]7(C)[C@H]6CC[C@]5(C)[C@H]4[C@H](C)C(=O)CCC(C)C)C3OC(C)=O)OCC(O)C2O)cc1 (stereo partly drawn)
Y
6. N#C/C(=C\c1cccc2cnccc12)N1N=NC2C=CC=CC21 (stereo not drawn)
N
7. CN(C)c1ccc(C(=C2C=CC(=[N+](C)C)C=C2)c2ccccc2Cl)cc1
Y
8. O=C(c1ccccc1)c1nn(-c2ccccc2)c2nc3nc(-c4ccccc4)cc(=O)n3nc12
N

---

# Test system: HS 578T breast
# assay: NCI tumour cell line growth inhibition, 48 h; in the data active = GI50 below about 0.43 µM; inactive = the rest
Outcome codes: 1 for active, -1 for inactive

1) COC(=O)[C@@H](OC)[C@@H]1Cc2cc3cc(OC4CC(OC5CC(O)C(O)C(C)O5)C(O)C(C)O4)c(C)c(O)c3c(O)c2C(=O)[C@H]1OC1CC(OC2CC(OC3CC(C)(O)C(O)C(C)O3)C(O)C(C)O2)C(O)C(C)O1 (stereo not given in full)
1
2) COc1ccc(-c2nc(-c3nc4ccc(C(F)(F)F)cc4[nH]3)c3ccccn23)cc1
-1
3) COC(=O)/C(=C\c1c(-c2ccccc2)[nH]c2ccccc12)S(C)(=O)=O
-1
4) C[C@]12CCc3sc(-c4cccc(F)c4)nc3C1=CC[C@@H]1[C@@H]2CC[C@]2(C)C(=O)CC[C@@H]12
-1
5) COc1cc(C2C3=C(COC3=O)Nc3cc4c(cc32)OCO4)cc2c1OCO2 (stereo not given)
1

---

# Test system: UO-31 renal
# assay: NCI tumour cell line growth inhibition, 48 h
Reported TGI values for the following compounds.
readout-kind: TGI

1. Cn1c(=O)c2nc(NCCO)cnc2n(C)c1=O
> 100 µM
2. O=P1(Oc2ccccc2)NCc2ncccc2O1 (stereo unspecified)
> 100 µM
3. Cc1[nH]c(=O)nc(N(CCO)/N=C/c2ccc(Cl)cc2)c1C(=O)Nc1ccc(Cl)cc1
> 100 µM
4. NC(=O)C1N=NSC1NC(=O)c1ccc([N+](=O)[O-])cc1 (stereo unspecified)
> 100 µM
5. COC(=O)c1ccc(C)cc1CC1Cc2c(C)cccc2C1=O (stereo unspecified)
66.4 µM
6. CCCCN1CCN(c2ccc3nc(-c4ccc5nc(-c6ccc(OCC)c(OCC)c6)[nH]c5c4)[nH]c3c2)CC1
5.8 µM
7. CN(C)/C=C/c1c2c(nc3ccccc13)C(=O)c1ccccc1C2=O
7.2 µM
8. CC(=O)OC1[C@@H](OC(C)=O)CN(OCc2ccccc2)C[C@H]1OC(C)=O (stereo partly specified)
> 100 µM
9. CC(C)(SCc1ccccc1)C(N)C(=O)O (stereo unspecified)
> 100 µM
10. CN=C(NC)N(C)c1nc(=[N+](C)C)ss1
> 100 µM
11. Cc1nc2cccc([N+](=O)[O-])c2n1CCCN(C)C
> 100 µM

---

# Tested on: NCI-H226 lung
# assay: NCI tumour cell line growth inhibition, 48 h; in the data active = GI50 below about 0.43 µM; inactive = the rest
Possible outcomes: TRUE for active, FALSE for inactive

1) CC12CCC(O)CC1=CCC1C2CCC2(C)C(c3cccnc3)=CCC12 (stereo unspecified)
FALSE
2) Cc1ncc(-c2ccnc(Nc3ccc(S(C)(=O)=O)cc3)n2)n1C(C)C
FALSE
3) CN1CCN(c2ccc(C(=O)Nc3cccc(C#Cc4cccc5[nH]nc(N)c45)c3)cc2C(F)(F)F)CC1
FALSE
4) COc1ccc2nccc(/C=C/c3ccnc4ccc(OC)cc34)c2c1
FALSE
5) CC1(C)CC(=O)c2c(ccc(C(=O)C[C@@H](N)CO)c2N)O1
FALSE
6) COc1cc(C2C3=C(COC3=O)Nc3cc4c(cc32)OCO4)cc2c1OCO2 (stereo unspecified)
TRUE

---

# Tested on: A498 renal
# assay: NCI tumour cell line growth inhibition, 48 h; in the data active = GI50 below about 0.43 µM; inactive = the rest
Outcomes: class 1 for active, class 0 for inactive

1) COC(=O)/C(=C\c1c(-c2ccccc2)[nH]c2ccccc12)S(C)(=O)=O
class 0
2) Cc1cc2c(cc1C)[n+](Cc1ccc3ccccc3n1)cn2Cc1ccc2ccccc2n1
class 0
3) CC(=O)c1ccc2c(c1)N(CCCN(C)C)c1ccccc1S2
class 0
4) CNCCCn1c2c(c3ccc(F)cc3c1=O)C(=O)c1cc(OC)cnc1-2
class 1
5) CC(=O)c1cccc(NC(=O)c2ccc(NC3=C(Cl)C(=O)N(Cc4ccccc4)C3=O)cc2)c1
class 0
6) COc1cc(C2C3=C(COC3=O)Nc3cc4c(cc32)OCO4)cc2c1OCO2 (stereo not given)
class 1
7) N#C/C(=C\c1cccc2cnccc12)N1N=NC2C=CC=CC21 (stereo not given)
class 0
8) CN(C)CCOc1ccc(-c2cc(-c3ccc4c(c3)CC/C4=N\O)c(-c3ccncc3)o2)cc1
class 0
9) Oc1ccccc1C=Nc1ccccc1N=Cc1ccccc1O.[Cu+2]
class 0
10) COc1ccc(C#CC2=C(c3cc(OC)c(OC)c(OC)c3)C(=O)OC2)cc1
class 0

---

# System: M14 melanoma
# assay: NCI tumour cell line growth inhibition, 48 h
Reported TGI values follow for various molecules
readout-kind: TGI (µM)

1. CS/C=C\C(=O)O[C@H]1C[C@@H]2[C@@H](O)c3occ(C)c3C[C@]2(C)[C@@H](C)C1
38.5
2. CNCCCn1c2c(c3ccc(F)cc3c1=O)C(=O)c1cc(OC)cnc1-2
1.63

---

# System: UACC-257 melanoma
# assay: NCI tumour cell line growth inhibition, 48 h
readout-kind: TGI

1. O[C@H]1[C@H](O)[C@@H](Cn2nnc(-c3ccccc3)c2-c2ccccc2)OCO[C@@H]1Cn1nnc(-c2ccccc2)c1-c1ccccc1
15.1 µM
2. O=S(=O)(NCCO)c1cc[c]([Sb](=[O])([OH])[OH])cc1
> 100 µM
3. CC12CC(Sc3ccccc3N1)c1ccccc1O2 (stereo not given)
27.8 µM
4. S=C(c1c[nH]c2ccccc12)N1CCCCC1
> 100 µM
5. N#C/C(=C\c1cccc2cnccc12)N1N=NC2C=CC=CC21 (stereo not given)
> 100 µM

---

# Test system: SN12C renal
# assay: NCI tumour cell line growth inhibition, 48 h
The following compounds are shown together with reported TGI values.
readout-kind: TGI

1. N=C(N)SCc1ccc(N=C=S)cc1
28.5 µM
2. NC(=O)CNC(=O)[C@@H]1C[C@@H](OCCC(=O)O)CN1C(=O)OCc1ccccc1
> 100 µM
3. NC(=S)N/N=C1\CCCCC1C(O)(C(F)(F)Cl)C(F)(F)Cl (centres undefined)
> 10 µM
4. C#CC(=O)OCC#CCOC(=O)C#C
82.3 µM
5. COC(=O)C(=O)C(CC(=O)Nc1cccc(C(F)(F)F)c1)C(=O)OC (centres undefined)
> 100 µM
6. Clc1ccc(N2CCC(N3CCCC3)CC2)cc1-c1nc2ccccc2[nH]1
> 73.7 µM
7. CC(=O)c1cccc(NC(=O)c2ccc(NC3=C(Cl)C(=O)N(Cc4ccccc4)C3=O)cc2)c1
9.63 µM
8. NC(N)=NS(=O)(=O)c1ccc(NC(=O)c2ccc3nc4ccccc4c(N)c3c2)cc1
> 100 µM
9. COc1cc2c(cc1OC)[C@@H]([C@H](O)c1ccccc1)NCC2
> 100 µM
10. CCCCN1C(=O)CS/C1=N/Nc1nc2c([nH]1)c(=O)n(C)c(=O)n2C
> 100 µM
11. CCOP(=O)(CC(=O)C1=C(O)C(CCCCNC(=O)OC(C)(C)C)N(Cc2ccccc2)C1=O)OCC (centres undefined)
> 100 µM
12. Cc1cc(NS(=O)(=O)c2ccc(Nc3c4ccccc4nc4c(C(=O)Nc5ccc(S(=O)(=O)N=C(N)N)cc5)ccc(Cl)c34)cc2)no1
> 100 µM
13. CC(C)(O)CCc1ccc(O)c2c(=O)c3c(O)c4c(cc3oc12)O[C@H]1OC=C[C@@]41O
> 100 µM
14. C/C=C1\CCC2c3[nH]c4ccccc4c3CCN2C1 (centres undefined)
> 100 µM
15. COC(=O)/C(=C\c1c(-c2ccccc2)[nH]c2ccccc12)S(C)(=O)=O
32 µM
16. O=S(=O)(/N=C(\NO)Nc1ccc(Cl)cc1)C1CC=C(c2ccon2)S1 (centres undefined)
98.9 µM
17. CNc1nc2c(C)ccc3[nH]c(N(C)C)nc3c-2n1
> 100 µM
18. CCOC(=O)N1N(c2ccccc2)C(=O)C1(c1ccccc1)c1ccccc1
> 100 µM
19. CN(C)CCOc1ccc(-c2cc(-c3ccc4c(c3)CC/C4=N\O)c(-c3ccncc3)o2)cc1
7.73 µM
20. CC(=O)OC(=C(C#N)C#N)c1nccnc1C(C)=O
> 20 µM
21. C[C@]12CC[C@@H]3c4ccc(O)cc4CC[C@H]3[C@@H]1CC[C@@H]2NS(=O)(=O)c1ccc2ccccc2c1
4.25 µM
22. O=C(CC1C(=O)Nc2ccccc2S1(=O)=O)Nc1cccc(Cl)c1 (centres undefined)
29.5 µM
23. CC(=O)c1ccccc1NS(=O)(=O)c1ccc2nc(C)n(NS(=O)(=O)c3ccccc3C(C)=O)c(=O)c2c1
> 100 µM
24. O=C1C=C2CC[C@H]3[C@@H]4CC[C@H](Oc5c6ccccc6nc6ccccc56)[C@H]4CC[C@@H]3[C@H]2CC1
> 100 µM
25. Brc1ccc(-c2cc(-c3ccc4c(c3)OCO4)c(-c3cccs3)n2Cc2ccccc2)cc1
> 100 µM
26. Nc1cc2nc3ccccc3oc-2cc1=O
2.9 µM
27. CCCCCSC1C2C(=O)C(Br)=CC13CCNc1c(O)c4c5c(c13)=[N+]2CCC=5C=N4 (centres undefined)
1.12 µM
28. CCCCCCCCCCCCCCNCC(OCC)OCC
27.9 µM
29. C[n+]1c(/C=C/c2ccc(/C=N/NC(=O)c3ccc(C(=O)N/N=C/c4ccc(/C=C/c5cn6ccccc6[n+]5C)cc4)cc3)cc2)cn2ccccc21
> 100 µM
30. CC1CC(C(=O)OC2OC(COC3OC(CO)C(OC4OC(C)C(O)C(O)C4O)C(O)C3O)C(O)C(O)C2O)C2CCC3(C)C(=CCC4(C)C3CCC3C(C)(CO)C(O)C(O)CC34C)C2C1C (centres undefined)
37 µM
31. CN(C)Cc1cc(C(=O)/C=C/c2ccc(F)cc2)cc(CN(C)C)c1O
> 100 µM
32. COc1ccc(-c2nnc(Nc3nc(O)c(C4=c5cc(F)ccc5=NC4=O)s3)o2)cc1
> 100 µM
33. NCCN1C(=O)c2ccccc2C1(O)c1ccc(Cl)cc1 (centres undefined)
> 100 µM
34. O=C(CCc1ccc(O)cc1)NCCCNC(=O)CCc1ccc(O)cc1
> 100 µM
35. COc1cc(Nc2nc3ccccc3nc2C(C)C)cc(OC)c1OC
> 100 µM
36. Cc1[nH]c(=O)nc(N(CCO)/N=C/c2ccc(Cl)cc2)c1C(=O)Nc1ccc(Cl)cc1
> 100 µM
37. CCN(CC)CC(=O)Nc1ccc2c(c1)C(=O)c1ccc(NC(=O)CN(CC)CC)cc1C2=O
> 100 µM
38. Oc1ccccc1C=Nc1ccccc1N=Cc1ccccc1O.[Cu+2]
18.7 µM
39. O=C(COc1ccc(-c2nc3cc(Cl)c(Cl)cc3[nH]2)cc1)N=Nc1c(O)[nH]c2ccccc12
> 100 µM
